Molecular target: UniProt A0A024AXB9
Sequence (A0A024AXB9 whole entry): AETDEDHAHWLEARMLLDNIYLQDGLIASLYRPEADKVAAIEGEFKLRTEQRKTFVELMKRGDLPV
Test: Functional biochemical assay to identify treatments for viral infectious disease that targets Zika NS2B-NS3 protease. Utilizing a direct enzyme activity measurement method, reading the fluorescence intensity is used to characterize the relative potency of inhibitors as IC50.
Set-up: species or system PRVABC59
pIC50: −log10 of the molar value.
readoutType: pIC50

// pIC50 value for O=C(N[C@H](C(=O)NCc1ccccc1CO)c1ccc(OCc2ccccc2)cc1)OCc1ccccc1 : < 4.00

Please fill in: pIC50 reported for O=C(Nc1cc(Cl)cc(C(=O)Nc2ccc3c(c2)C[C@H](O)C3)c1)OCc1ccccc1 = < 4.00

Entry CN(C)Cc1nnc(NC(=O)[C@@H](NC(=O)OCc2ccccc2)c2ccc(OCc3ccccc3)cc2)s1 — recorded pIC50 = < 4.00

Value of pIC50 reported for the compound COCC(=O)N1CCC([C@@H](NC(=O)OCc2ccccc2)C(=O)Nc2cccc(CN)c2)CC1 is < 4.00

pIC50 reading for CN(C)Cc1cccc(C(=O)Nc2cc(Cl)cc(C(=O)NC(C)(C)CO)c2)c1 : < 4.00

The reported value for Cn1cc(CCc2nc3c(C(=O)Nc4ccc5c(c4)CNC5)cc(Cl)cc3[nH]2)cn1 in terms of pIC50 is 6.81

The compound identified as CCn1c(=O)c(N2C[C@@H](CO)[C@H](c3cncn3C)C2)nc2ccccc21 registered its pIC50 at < 4.00

Record summary for N#Cc1ccc(OCCn2nnn(-c3ccccc3)c2=O)cc1 : reported pIC50 = < 4.00
